Just for reference, patent US11078196B2 is where these values come from.

Assignment: determine reported clearance for the given compounds.
Assay: In vivo pharmacokinetics and brain distribution, single i.v. or p.o. dose
Design: species or system male C57BL/6 mice
Conditions: male, C57BL/6, mouse, plasma, iv; mice, at 10 mg/kg; read-out: PK Clearance
Note: unit mL/min/kg is implicit; provide only the numeric part.

Output clearance of CCCC[C@H](Cc1c[nH]c2ccccc12)NC(=O)c1cnc(N2CCN(C)CC2)s1 [Example 28]
69

Give clearance for CCCCC(Cc1c[nH]c2ccccc12)NC(=O)c1cnc(N2CCN(C)CC2)s1 (centres unmarked) [Example 1]
81

Find the measured clearance of CCCC[C@@H](Cc1c[nH]c2ccccc12)NC(=O)c1cnc(N2CCN(C)CC2)s1 [Example 27] and report it.
37

Give reported clearance value for CCCCC(Cc1c[nH]c2ccccc12)NC(=O)c1cnc(CCN2CCN(C)CC2)s1 (centres unmarked) [Example 5]
24

Identify measured clearance associated with CN1CCN(CCc2ncc(C(=O)NCCc3c[nH]c4ccccc34)s2)CC1 [Example 4]
95
